Measured values drawn from the supplement of paper PMC11061612 for this set.

Tested on: MHH-CALL-2 (B-Lymphoblastic Leukemia);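 also: after 72 h of two-drug dosing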
METHOD_NOTES: Bliss excess, mean over the matrix (fraction); higher = more synergy
Bliss excess values by entry

- COMPOUND: "CN(CCO)CC[C@H](CSc1ccccc1)Nc1ccc(S(=O)(=O)NC(=O)c2ccc(N3CCC([C@@H](O)c4ccccc4-c4ccc(Cl)cc4)CC3)cc2)cc1S(=O)(=O)C(F)(F)F [AZD4320] + CCN(CCO)CCCOc1ccc2c(Nc3cc(CC(=O)Nc4cccc(F)c4)[nH]n3)ncnc2c1 [AZD2811] (first compound max 1 µM, 7x7, partner max 1 µM)"
  Bliss excess: 0.138

Using the record for CN(CCO)CC[C@H](CSc1ccccc1)Nc1ccc(S(=O)(=O)NC(=O)c2ccc(N3CCC([C@@H](O)c4ccccc4-c4ccc(Cl)cc4)CC3)cc2)cc1S(=O)(=O)C(F)(F)F [AZD4320] + CN(C)CCCOc1ccc(-c2ccc3ncc4c(c3c2)n(C2CCOCC2)c(=O)n4C)cn1 [AZD0156] (first compound max 1 µM, 7x7, partner max 1 µM) , state its measured Bliss excess.
0.106
